test: soluble on expression in E. coli; label from the status in PepcDB or PDB records
measured-attribute: soluble on expression in E. coli

Problem: Tell me soluble on expression in E. coli reported for `MGSDKIHHHHHHMLSHETIWNAIDRLAEQYHLTPSGLARKAGLDPTSFNKSKRVGPDGRMRWPSTESIAKVLEATGARIDQFVTLISNDNHQVNAVHETLPDGNFPPQIGTIPLLGLAQAGSGGFFDDGGFPAGQGWDLVDLPTSAKPGVYALEIQGDSMKPLYRDGDILIVEPGAPVRRGDRVVVKTCDGEVMAKVLGRQTARTVDLISINPDHPNRVLDMQDVEWIARIIWVSQ`
Result: not soluble

Problem: For the sequence `MGSDKIHHHHHHENKLVSGAVGLGFGTGPTFPGADENDSGLFPVVDLKIGQYVVVNQRGLGLEHSRSLGHGELSYGLGVGYDFTSRSVEDDLRLAGLSDVDAGAMATLFLEYQTGPFSYGLEVMRGLNSDGHEGTRAKLSGGYDIQLSERAGLSVSPYLIWADDNWMDSFFSVSNAQSVASGLAAYDANAGMSQAGLNLTASYALREQVIVFASVDYATLLGDAADSSVSFDDNAASLSAGVMFRF` , give its measured soluble on expression in E. coli value.
Result: not soluble
